The measurements presented in this section are drawn from patent US8975398B2.

I'd appreciate it if you could supply IC50 values for the items below.
molecular target: NAMPT (human, recombinant, C-terminally His-tagged) (Homo sapiens); test: Time-Resolved Fluorescence Resonance Energy Transfer (TR-FRET) Binding Assay of NAMPT; conditions: 6.8 nM NAMPT, 200 nM probe, equilibrated 3 hours, absence of substrates
Sequence (P43490 whole entry): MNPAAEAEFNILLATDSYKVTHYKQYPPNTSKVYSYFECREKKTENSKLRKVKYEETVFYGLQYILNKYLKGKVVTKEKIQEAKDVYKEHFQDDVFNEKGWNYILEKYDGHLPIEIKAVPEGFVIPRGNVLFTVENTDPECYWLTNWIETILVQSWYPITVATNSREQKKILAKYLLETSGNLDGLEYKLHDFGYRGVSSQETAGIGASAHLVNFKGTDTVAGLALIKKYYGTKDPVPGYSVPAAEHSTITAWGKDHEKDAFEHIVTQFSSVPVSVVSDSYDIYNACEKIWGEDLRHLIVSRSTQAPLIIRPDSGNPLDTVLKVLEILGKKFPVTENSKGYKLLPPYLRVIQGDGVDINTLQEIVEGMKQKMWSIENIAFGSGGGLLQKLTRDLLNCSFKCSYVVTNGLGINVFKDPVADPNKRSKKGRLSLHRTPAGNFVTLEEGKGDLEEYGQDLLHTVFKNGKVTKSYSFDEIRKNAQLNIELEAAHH

Completed entries (count: 3):
1) CCCCN1CCC(c2ccc(NC(=O)C3CN(c4cccnc4)C3)cc2)CC1 992 nM
2) Cc1cccc(C(=O)N2CCC(c3ccc(NC(=O)C4CN(c5cccnn5)C4)cc3)CC2)c1C 17.7 nM
3) O=C(Nc1ccc(C2CCN(C(=O)c3ccccc3Cl)CC2)cc1)C1CN(c2cccnn2)C1 4.62 nM

Ask | State its IC50: Cc1ncccc1N1CC(C(=O)Nc2ccc(C3CCN(C(=O)c4cccc(F)c4)CC3)cc2)C1
Reply | 87.6 nM
